# pIC50 against UniProtKB O75116, merged from multiple literature sources
pIC50: −log10 of the molar value.

# COMPOUND, SIGN, pIC50
measured = [
    ("O=C1N(c2ccc(-c3cn[nH]c3)cc2)CC(CO)[C@@]12Cc1ccccc1N2 (stereo partly drawn)", ">", 8.52),
    ("Cc1nc(NC(=O)Cc2ccc(Oc3ncccc3C(N)=O)c(F)c2)sc1C", "=", 7.51),
    ("CN(C)CCOc1cc(-c2cn[nH]c2)c(F)cc1NC(=O)[C@H](N)CCc1ccccc1", "=", 6.47),
    ("COc1ccc(C(=O)N2CCC3(CC2)CCN(c2ccc(-c4cn[nH]c4)c(OC)c2)C3=O)c(OC)c1", "=", 7.54),
    ("CN(C)C[C@@H](NC(=O)N1CCc2cc(-c3c[nH]nc3F)c(F)cc21)c1cc(F)cc(F)c1", "≥", 7.30),
    ("COc1ccc(C(=O)N2CCC3(CC2)CCN(c2ccc(-c4cn[nH]c4)c(OC)c2)C3=O)cc1Cl", "=", 8.22),
    ("CCc1nc(-n2ccn(C(C)c3cc(F)cc(OC)c3)c2=O)ccc1-c1cn[nH]c1 (single isomer, unassigned)", ">", 8.70),
    ("CN1CCC(NC(=O)c2cc3ccc(-c4nccc(Nc5ccc(-c6cn[nH]c6)cc5)n4)cc3[nH]2)C1 (stereo not drawn)", "=", 6.83),
    ("CC(NC(=O)c1ccc(-c2ccncc2)cc1)c1cccc(OCC(=O)NC2CC2)c1 (stereo not drawn)", "=", 8.05),
    ("NC(=O)c1c(O[C@H]2C[C@@]3(C[C@H](NC(=O)c4cnn5cc(OCC(F)F)ccc45)C3)C2)nn2cc(F)ccc12 (stereo partly drawn)", "=", 6.95),
    ("CC(C)N1CCC(CNC(=O)c2cccc([C@@H](C)NC(=O)c3ccc(-c4ccncc4)cc3)c2)CC1", "=", 9.28),
    ("[H][C@]1(Oc2ncccc2C(N)=O)C[C@]2(C[C@@H](N3C(=O)NC(CC(C)Cc4ccccc4)C3=O)C2)C1 (stereo partly drawn)", "=", 7.54),
    ("CCc1nc(N2CC3(CCN(C(=O)OC)CC3)N(Cc3cc(F)cc(OC)c3)C2=O)ccc1-c1cn[nH]c1", ">", 8.52),
    ("COc1cc(N2CCC3(CCN(C(=O)c4ccc(N5CCCCC5=O)cc4)CC3)C2=O)ccc1-c1cn[nH]c1", "=", 8.06),
    ("COc1ccc2c(N[C@H]3C[C@]4(C3)C[C@H](Oc3ncccc3C(N)=O)C4)nccc2c1 (stereo partly drawn)", "=", 7.77),
    ("Cn1nc(C(F)(F)F)cc1-c1ccc2sc(NC(=O)Cc3ccc(Oc4ncccc4C(N)=O)c(F)c3)nc2c1", "=", 7.74),
    ("Cc1sc(NC(=O)Cc2ccc(Oc3ncccc3C(N)=O)c(F)c2)nc1-c1ccnn1C", "=", 6.86),
    ("COC(=O)c1ccc2c(c1)nc(NC(=O)Cc1ccc(Oc3ncccc3C(N)=O)cc1)n2C", "=", 5.96),
    ("COc1cc(C(=O)N[C@@H](C)[C@H](O)c2ccccc2)ccc1-c1cn[nH]c1", "=", 6.65),
    ("N#Cc1cc(C(=O)N[C@H](CO)c2ccccc2)ccc1-c1cn[nH]c1", "=", 6.82),
    ("CCCOC(=O)c1cccc(C(=O)Nc2cccc(CNC3CCC(Nc4cccc5cnccc45)CC3)c2)c1 (stereo not drawn)", ">", 7.00),
]
